assay remarks: Cytotoxicity activity against human HepG2 cells assessed by CellTiter-Glo luminescent cell viability assay.
Assay type: toxicity, cell-based
Parameters: assay stage confirmatory assay, source tissue liver
test conditions: HepG2 cells, read-out: IC50 relative
The source made the active and inactive calls. The rule behind the calls is not given here.
In this exercise, the only acceptable responses are 1.0 = active, 0.0 = inactive

Name the outcome recorded for Cc1cc(N2CCC[C@H](c3c[nH]c4ncccc34)C2)n2ncnc2n1 in the assay.
1.0

Record lookup: outcome of this test for COc1cccc(Cn2c(=O)c3ccnn3c3ccc(C(=O)NCCN(C)C)cc32)c1 ?
1.0

Recorded call for C[C@H]1O[C@@H](O[C@H]2[C@@H](O)C[C@H](O[C@H]3[C@@H](O)C[C@H](O[C@H]4CC[C@@]5(C)[C@H](CC[C@@H]6[C@@H]5CC[C@]5(C)[C@@H](C7=CC(=O)OC7)CC[C@]65O)C4)O[C@@H]3C)O[C@@H]2C)C[C@H](O)[C@@H]1O ?
1.0

Hello, I am checking results. What call was entered for Cn1c(=O)c2ccc(C(=O)Nc3nc(-c4ccco4)cs3)nc2n(C)c1=O ?
0.0

Tell me the recorded outcome of this test for COc1ccc(CCN2CCC(Nc3nc4ccccc4n3Cc3ccc(F)cc3)CC2)cc1 .
1.0

What was the test verdict on Cc1cc(C)cc(NC(=O)N(C)CCc2scnc2C)c1 ?
0.0

Would you mind telling me which call this test gave CN1C[C@H](CNC(=O)OCc2ccccc2)C[C@@H]2c3cccc4c3c(cn4C)C[C@H]21 ?
1.0

Could you kindly confirm the outcome this assay logged for O=C(Cn1ncc(Cl)c(Cl)c1=O)N1CCC[C@H]1c1ccc2c(c1)OCCCO2 ?
1.0
